All figures here come from PubChem BioAssay AID624325.

tested-target: Fatty acid synthase (Homo sapiens) (UniProt P49327)
Sequence (P49327 whole entry, looked up): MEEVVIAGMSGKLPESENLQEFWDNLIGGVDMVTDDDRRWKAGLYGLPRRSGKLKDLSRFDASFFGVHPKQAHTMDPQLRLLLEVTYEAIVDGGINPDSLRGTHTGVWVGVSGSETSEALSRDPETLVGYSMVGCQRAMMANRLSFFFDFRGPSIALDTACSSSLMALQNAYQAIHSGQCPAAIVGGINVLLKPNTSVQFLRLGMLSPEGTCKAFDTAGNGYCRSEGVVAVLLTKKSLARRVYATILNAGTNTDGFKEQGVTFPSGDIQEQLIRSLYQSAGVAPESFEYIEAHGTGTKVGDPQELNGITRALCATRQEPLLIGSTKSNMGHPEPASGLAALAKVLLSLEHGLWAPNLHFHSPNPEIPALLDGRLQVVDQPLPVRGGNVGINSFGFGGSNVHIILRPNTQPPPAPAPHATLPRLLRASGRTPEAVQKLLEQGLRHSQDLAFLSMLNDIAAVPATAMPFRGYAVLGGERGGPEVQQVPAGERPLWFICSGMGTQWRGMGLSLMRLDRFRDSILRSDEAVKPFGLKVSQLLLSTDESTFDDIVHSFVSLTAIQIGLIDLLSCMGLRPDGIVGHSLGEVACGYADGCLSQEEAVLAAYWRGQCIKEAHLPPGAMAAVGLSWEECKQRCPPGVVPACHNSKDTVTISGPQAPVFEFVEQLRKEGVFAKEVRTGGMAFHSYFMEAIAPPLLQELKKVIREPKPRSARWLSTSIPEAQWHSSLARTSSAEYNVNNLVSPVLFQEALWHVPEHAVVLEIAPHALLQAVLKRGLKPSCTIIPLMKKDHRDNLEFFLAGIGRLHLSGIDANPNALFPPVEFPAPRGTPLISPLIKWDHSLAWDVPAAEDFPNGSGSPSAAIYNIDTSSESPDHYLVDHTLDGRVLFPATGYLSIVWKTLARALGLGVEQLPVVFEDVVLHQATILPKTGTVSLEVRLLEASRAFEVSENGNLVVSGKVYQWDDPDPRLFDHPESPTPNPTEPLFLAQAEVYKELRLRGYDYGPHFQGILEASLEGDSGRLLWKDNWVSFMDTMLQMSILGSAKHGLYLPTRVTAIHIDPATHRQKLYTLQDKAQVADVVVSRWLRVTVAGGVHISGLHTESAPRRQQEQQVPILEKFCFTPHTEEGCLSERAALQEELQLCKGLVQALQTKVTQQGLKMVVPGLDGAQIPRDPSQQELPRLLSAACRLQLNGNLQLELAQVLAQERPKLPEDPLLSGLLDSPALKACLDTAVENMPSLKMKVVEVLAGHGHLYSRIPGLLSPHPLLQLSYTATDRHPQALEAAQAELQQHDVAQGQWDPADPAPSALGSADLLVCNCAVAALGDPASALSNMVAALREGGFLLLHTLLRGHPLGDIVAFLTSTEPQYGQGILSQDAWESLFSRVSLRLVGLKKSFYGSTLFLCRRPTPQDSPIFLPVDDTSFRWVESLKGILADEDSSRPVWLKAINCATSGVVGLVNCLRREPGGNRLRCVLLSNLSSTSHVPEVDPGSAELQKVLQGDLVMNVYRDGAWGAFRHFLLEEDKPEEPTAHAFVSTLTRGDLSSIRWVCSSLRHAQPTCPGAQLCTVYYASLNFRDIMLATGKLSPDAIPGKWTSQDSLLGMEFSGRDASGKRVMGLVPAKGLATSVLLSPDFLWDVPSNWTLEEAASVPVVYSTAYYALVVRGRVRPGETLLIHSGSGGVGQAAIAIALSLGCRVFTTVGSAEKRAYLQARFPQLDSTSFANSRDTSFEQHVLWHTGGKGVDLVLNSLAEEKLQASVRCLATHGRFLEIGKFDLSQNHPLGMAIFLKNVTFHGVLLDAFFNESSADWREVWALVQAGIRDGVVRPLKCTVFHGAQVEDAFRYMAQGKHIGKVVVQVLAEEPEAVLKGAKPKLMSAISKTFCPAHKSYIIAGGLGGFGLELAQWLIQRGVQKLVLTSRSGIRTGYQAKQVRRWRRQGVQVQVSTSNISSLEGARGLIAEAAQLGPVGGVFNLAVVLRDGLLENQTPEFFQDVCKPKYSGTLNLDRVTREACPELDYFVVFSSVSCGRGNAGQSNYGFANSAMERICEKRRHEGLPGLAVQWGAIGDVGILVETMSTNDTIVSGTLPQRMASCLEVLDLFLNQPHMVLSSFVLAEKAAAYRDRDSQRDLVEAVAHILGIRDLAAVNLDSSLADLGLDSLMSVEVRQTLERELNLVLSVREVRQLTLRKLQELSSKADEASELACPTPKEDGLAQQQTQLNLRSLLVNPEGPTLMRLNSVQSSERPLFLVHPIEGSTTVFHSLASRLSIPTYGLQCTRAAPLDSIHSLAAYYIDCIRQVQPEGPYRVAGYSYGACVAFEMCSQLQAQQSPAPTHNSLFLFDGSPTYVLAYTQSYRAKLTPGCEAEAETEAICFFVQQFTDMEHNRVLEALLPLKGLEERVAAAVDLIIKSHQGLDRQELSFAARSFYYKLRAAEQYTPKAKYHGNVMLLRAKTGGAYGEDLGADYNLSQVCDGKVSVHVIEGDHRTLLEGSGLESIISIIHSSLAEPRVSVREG
procedure-details: inhibition of human FAS-TE enzyme activity – biochemical, fluorescence intensity, single concentration, confirmation (AID 624325)
condition-summary: recombinant FAS-TE, OMFH fluorogenic substrate, at 15 µM, active compounds read high
Out of some 2,300 compounds screened, about 1,000 (43%) were called active. So high a share suggests a set chosen from earlier hits. The list is a sample of the results.
Quick rule: inhibition of at least 60% means y, below that means n.

Solved cases below.
Say whether O=C(Nc1cccc(Cl)c1)c1cc([N+](=O)[O-])ccc1N1CCN(CCO)CC1 shows inhibition of 60% or more.
y

Say whether Cc1cccc([C@@H]2[C@@H]3C(=O)N(Cc4ccccc4)C(=O)[C@@H]3[C@]3(Cc4ccc(Cl)cc4)C(=O)N(c4cccc(Cl)c4)C(=O)N23)c1 shows inhibition of 60% or more.
n

Say whether COc1ccc([N+](=O)[O-])cc1NC(=O)COC(=O)/C=C/c1ccco1 shows inhibition of 60% or more.
y

Say whether O=C(Oc1cccc(N2C(=O)C3C4c5ccccc5C(c5ccccc54)C3C2=O)c1)c1ccco1 (stereo not drawn) shows inhibition of 60% or more.
n

Say whether COc1ccc(-c2csc3nc(-c4ccccc4F)oc(=O)c23)cc1OC shows inhibition of 60% or more.
n

Say whether COc1ccc([C@@H]2[C@@H]3C(=O)N(C(C)(C)C)C(=O)[C@@H]3[C@]3(Cc4ccccc4)C(=O)N(c4cccc(Br)c4)C(=O)N23)cc1 shows inhibition of 60% or more.
n

Say whether CN(C)c1ccc(/C=C/C(=O)c2ccc(C(C)(C)C)cc2)cc1[N+](=O)[O-] shows inhibition of 60% or more.
n

Let us examine a further case.
Say whether Cc1cc(C(=O)COc2ccccc2[N+](=O)[O-])c(C)n1-c1cccc(S(=O)(=O)N2CCOCC2)c1 shows inhibition of 60% or more.
n

---

tested-target: Fatty acid synthase (Homo sapiens)
procedure-details: inhibition of human FAS-TE enzyme activity – biochemical, fluorescence intensity, single concentration, confirmation (AID 624325)
condition-summary: recombinant FAS-TE, OMFH fluorogenic substrate, at 15 µM, active compounds read high
Screen size: about 2,300 compounds; about 1,000 (43%) were called active. So high a share suggests a set chosen from earlier hits. The list is a sample of the results.
Quick rule: inhibition of at least 50% means True, below that means False.

Solved cases below.
Say whether O=C(N/N=C/c1cc([N+](=O)[O-])ccc1O)/C(=C\c1cccs1)NC(=O)c1ccccc1 shows inhibition of 50% or more.
False

Say whether CC1(C)CC(=O)c2c(n(S(=O)(=O)c3ccccc3)c3ccc(NS(=O)(=O)c4ccccc4)cc23)C1 shows inhibition of 50% or more.
False

Say whether CCOC(=O)N1CCN(Cc2nc3ccc([N+](=O)[O-])cc3c(=O)n2-c2cccc(OC)c2)CC1 shows inhibition of 50% or more.
True

Let us examine a further case.
Say whether Fc1ccc(-n2c(Cc3ccccc3)nnc2SCc2nc(-c3ccc(Cl)cc3)no2)cc1 shows inhibition of 50% or more.
True

---

tested-target: Fatty acid synthase (Homo sapiens) (UniProt P49327)
procedure-details: inhibition of human FAS-TE enzyme activity – biochemical, fluorescence intensity, single concentration, confirmation (AID 624325)
condition-summary: recombinant FAS-TE, OMFH fluorogenic substrate, at 15 µM
The campaign covered roughly 2,300 compounds. About 1,000 (43%) were called active.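 The calls were made as follows: active = compounds inhibiting the enzyme by at least 50% at 15 µM in any one of the replicates; inactive = the rest.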 The set was probably picked from earlier hits. A selection follows.
A correct response names exactly one class from active, inactive

Solved cases below.
Recorded test outcome, item O=C(NCc1ccc2c(c1)OCO2)c1cc([N+](=O)[O-])ccc1N1CCOCC1
active

Recorded test outcome, item C[C@@]12C(=O)N(c3cccc(Br)c3)C(=O)N1[C@H](c1ccc(Cl)cc1)[C@@H]1C(=O)N(C3CCCCC3)C(=O)[C@@H]12
active

Recorded test outcome, item O=[N+]([O-])c1cc(Br)c(O)c(/C=N/Nc2nc3ccccc3s2)c1
inactive

Recorded test outcome, item Cc1ccc(S(=O)(=O)c2nnn3c2nc(N2CCN(c4ccccn4)CC2)c2ccccc23)cc1
inactive

Recorded test outcome, item O=C(Cc1ccc(Cl)c(Cl)c1)Nc1ccc(SC(F)F)cc1
inactive

***
Recorded test outcome, item COc1cc(-c2noc(C3CCCN(S(=O)(=O)c4cccc(Cl)c4)C3)n2)cc(OC)c1OC (stereo not given)
inactive

Recorded test outcome, item CC(C)c1ccc2c(c1)c(SC(C)(C)C)c(CC(C)(C)C(=O)O)n2Cc1ccc(Cl)cc1
active

Recorded test outcome, item Cc1ccc(NC(=O)c2nc[nH]c2C(=O)N[C@@H](CCCCNC(=O)OC(C)(C)C)C(=O)OC(C)(C)C)cc1
active

Recorded test outcome, item Cc1cccc(CS(=O)(=O)c2ncc(Cl)c(C(=O)Nc3ccc(F)cc3)n2)c1
active
